assay: chemical genetic growth profiling, strain panel (AID 1159580);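 also: tested at 20 µM; growth read once vehicle control cultures reached saturation at 30 °C; 1 = growth at the plate median or of vehicle wells; lower values mean less growth of the strain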; details: S. cerevisiae deletion strains, growth OD, locus YHR094C, strain hxt1, active compounds read low
About 2,000 (36%) of roughly 5,500 compounds were called active. Another 18% or so got no clear call; they are omitted. Some of the results follow.
property name: normalized growth
One number for each entry.

Recorded normalized growth, per entry:
OCC(O)CN1CCN(c2ccccc2)CC1 (stereo not given) | 0.992
C[C@]12CCC(=O)C=C1C=CC1C2CC[C@@]2(C)C1CC[C@@]21CCC(=O)O1 (stereo not given in full) | 0.974
NCCC(O)C(=O)NC1CC(N)C(OC2OC(CN)C(O)C(O)C2N)C(OC2OC(CO)C(O)C2O)C1O (stereo not given) | 0.989
CNCCC(Oc1ccc(C(F)(F)F)cc1)c1ccccc1 (stereo not given) | 1

Kindly consider the entry below.
For reference, reported normalized growth for C[C@]12CCC(=O)C=C1C=CC1C2CC[C@@]2(C)C1CC[C@@]2(O)CCC(=O)O (stereo not given in full) stands at 0.993
